Parameter: hERG current change (%, negative = inhibition) at 10uM. Scope: all listed entries.
# EXPERIMENTAL_SYSTEM: human ether-à-go-go-related gene (hERG) potassium channel (human, UniProt Q12809);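 note: peak tail current of the secondary pulse compared with the same well before compound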
# Sequence (Q12809 whole entry, looked up): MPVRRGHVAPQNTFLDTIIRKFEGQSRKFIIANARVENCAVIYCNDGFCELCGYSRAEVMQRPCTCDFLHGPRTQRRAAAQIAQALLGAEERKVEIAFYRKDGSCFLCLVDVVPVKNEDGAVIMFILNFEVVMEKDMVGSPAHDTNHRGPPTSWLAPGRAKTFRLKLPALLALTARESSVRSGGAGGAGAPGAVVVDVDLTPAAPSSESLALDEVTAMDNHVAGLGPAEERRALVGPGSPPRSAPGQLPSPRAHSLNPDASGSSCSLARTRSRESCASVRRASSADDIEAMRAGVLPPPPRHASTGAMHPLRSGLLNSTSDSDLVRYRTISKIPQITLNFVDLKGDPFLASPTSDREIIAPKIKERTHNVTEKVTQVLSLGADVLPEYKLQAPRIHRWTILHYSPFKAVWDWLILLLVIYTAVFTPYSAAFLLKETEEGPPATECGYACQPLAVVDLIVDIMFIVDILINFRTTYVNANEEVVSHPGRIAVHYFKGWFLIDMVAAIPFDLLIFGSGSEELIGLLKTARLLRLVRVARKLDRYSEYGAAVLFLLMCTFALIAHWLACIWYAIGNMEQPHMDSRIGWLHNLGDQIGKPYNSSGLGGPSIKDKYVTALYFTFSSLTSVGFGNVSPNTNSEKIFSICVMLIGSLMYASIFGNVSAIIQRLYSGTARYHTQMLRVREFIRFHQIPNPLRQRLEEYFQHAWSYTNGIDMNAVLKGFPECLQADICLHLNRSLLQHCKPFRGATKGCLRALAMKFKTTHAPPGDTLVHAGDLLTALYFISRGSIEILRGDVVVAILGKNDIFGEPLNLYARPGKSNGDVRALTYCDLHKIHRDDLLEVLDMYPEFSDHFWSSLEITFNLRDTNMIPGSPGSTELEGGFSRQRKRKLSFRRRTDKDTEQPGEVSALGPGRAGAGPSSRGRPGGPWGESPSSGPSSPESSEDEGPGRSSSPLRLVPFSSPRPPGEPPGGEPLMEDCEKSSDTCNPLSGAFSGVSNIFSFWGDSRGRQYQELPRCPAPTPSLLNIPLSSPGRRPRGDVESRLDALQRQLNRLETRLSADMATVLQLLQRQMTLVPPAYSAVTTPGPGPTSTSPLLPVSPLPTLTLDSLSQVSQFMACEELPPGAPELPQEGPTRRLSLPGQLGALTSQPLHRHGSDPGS
# ASSAY_COMMENT: primary screen, population patch clamp on CHO cells stably expressing hERG; higher = less effect of the substance
The campaign covered roughly 310,000 compounds. About 14,000 (4.5%) showed an effect of 50% or more. The effect is printed as a negative number. This is one part of a sample in which strong results are shown more often than they occur.
EXPERIMENTAL_READOUT: hERG current change (%, negative = inhibition) at 10uM (%)

MOLECULE: O=C(Nc1cccc(S(=O)(=O)N2CCOCC2)c1)C(c1ccccc1)N1CCCCC1 (stereo not shown)
OBSERVED_VALUE: -37.9
//
MOLECULE: O=C(O)C(=O)O.O=C(c1ccco1)N1CCN(Cc2ccccc2F)CC1
OBSERVED_VALUE: 3.7
//
MOLECULE: Cc1ccc2nc(N3CCN(CCO)CC3)nc(-c3ccccc3)c2c1
OBSERVED_VALUE: -54.4
//
MOLECULE: O=C(CSc1ccccc1)Nc1cccc(S(=O)(=O)N2CCOCC2)c1
OBSERVED_VALUE: -25.4
//
MOLECULE: CC(C)[C@H](NC(=O)c1ccccc1)C(=O)Nc1cccc(S(=O)(=O)N2CCOCC2)c1
OBSERVED_VALUE: -2.22
//
MOLECULE: O=C(c1ccco1)N1CCN(Cc2nc3ccc([N+](=O)[O-])cc3c(=O)n2-c2ccccc2F)CC1
OBSERVED_VALUE: -68.3
//
MOLECULE: COc1ccc(S(=O)(=O)N2CCC(C(=O)N3CCc4ccccc4C3)CC2)cc1C
OBSERVED_VALUE: -19.7
//
MOLECULE: CSc1ccc(S(=O)(=O)NCC(=O)OCC(=O)N2CCCCC2C)cc1[N+](=O)[O-] (stereo not shown)
OBSERVED_VALUE: 4.74
//
MOLECULE: O=C(CN1CCC(c2nc3ccccc3s2)CC1)N1CCCCC1
OBSERVED_VALUE: -33.5
//
MOLECULE: O=C(c1cccs1)N1CCN(c2nc3ccccc3s2)CC1
OBSERVED_VALUE: 0.757
//
MOLECULE: c1ccc(Oc2cccc(OCCn3cncn3)c2)cc1
OBSERVED_VALUE: -12.7
//
MOLECULE: Cc1cccc(C(=O)N2CCC(c3nc4ccccc4s3)CC2)c1
OBSERVED_VALUE: -33.7
//
MOLECULE: CCc1nnc(NC(=O)CSc2nnc(CSc3nc(C)cc(C)n3)o2)s1
OBSERVED_VALUE: 3.21
//
MOLECULE: O=C(c1ccccc1Br)N1CCC(c2nc3ccccc3s2)CC1
OBSERVED_VALUE: -35.1
//
MOLECULE: COc1cccc(CNC(=S)Nc2cc(C)cc(C)c2)c1
OBSERVED_VALUE: 6.62
//
MOLECULE: O=C(c1cccs1)N1CCC(c2nc3ccccc3s2)CC1
OBSERVED_VALUE: -57.2

FYI, the data here is from paper PMC4336329.
